Source: PubChem BioAssay (NCI)

- System: 786-0 renal
- method: NCI-60 one-dose screen, 48 h (100 = growth as untreated, 0 = no growth, -100 = all killed)
- setupConditions: 10 µM unless noted
Compounds without any hit were thinned out: in the full panel of roughly 83,000, 20% have a hit. Active and inactive are the calls of the source. The calls were made as follows: active = growth percent below 10; inactive = the rest.
readoutType: growth

Example entries and their recorded answers appear below.
molecule: CCOC(=O)C1=C(C(=O)OCC)N(c2cc(OC)c(OC)c(OC)c2)C(N)=C(C#N)C1c1cc(=O)[nH]c2ccccc12 (stereo not given)
readoutType: growth
reportedValue: 101% (inactive)
//
molecule: O=C(NNC(=O)c1cccc(Cl)c1)c1ccccc1
readoutType: growth
reportedValue: 102% (inactive)
//
molecule: Clc1ccccc1CNc1c2ccccc2nc2ccccc12
readoutType: growth
reportedValue: 24.5% (inactive)
//
molecule: CCCCCCCCCCCCCCCCCC1=NCCN1CCO
readoutType: growth
reportedValue: 75.6% (inactive)
//
molecule: CC1=CC(=O)OC1C/C=C(\C)CCC1[C@@]2(C)CCC[C@@](C)(C(=O)O)C2CC[C@@]1(C)O (stereo not given in full)
readoutType: growth
reportedValue: 54.6% (inactive)
//
molecule: Cc1ccccc1Nc1n[nH]c(Cc2ccccc2)n1
readoutType: growth
reportedValue: 105% (inactive)

Param item = CCOC(=O)Cc1cc(Br)c(OCc2ccccc2)c(Br)c1 ; retrieve measured growth.
92.8% (inactive)

Param item = O=C(/C=C/c1ccccc1Br)c1cccc(OCCCCOc2cccc(C(=O)/C=C/c3ccccc3Br)c2)c1 ; retrieve measured growth.
104% (inactive)

Param item = COc1ccc(-c2nc(SCCC(C)C)nc(Nc3ccc(C(=O)O)cc3)c2C#N)cc1 ; retrieve measured growth.
97% (inactive)

Param item = CCCCCCCOc1cccc(/C=C2\N=C3SCCCN3C2=O)c1 ; retrieve measured growth.
92.5% (inactive)
